The reported numbers originate from ChEMBL document CHEMBL4130531.

test: in vivo; settings: Sprague-Dawley, rat, brain and plasma, iv, 5 mg/kg
value.kind: Kp uu
Quick one: just the number, no unit, thanks!

Q: What value of Kp uu has been recorded for this entry: `Cc1cc([C@H](C)Nc2nccc(N3C(=O)OC[C@@H]3[C@H](C)F)n2)ncc1-c1ccnc(C(F)(F)F)c1`
Ans: 0.18

###

Can you tell me solubility for the items I'm about to list?
test: Solubility of the compound at pH 6.8; assay type: physicochemical; conditions: buffer
Report as a plain number; the unit µM is understood.

Q: State the recorded solubility for this entry: `Cc1cc(-c2ccc([C@H](C)Nc3nccc(N4C(=O)OC[C@@H]4C(C)C)n3)nc2)ccn1`
Ans: 430

Q: For `Cc1cc([C@H](C)Nc2nccc(N3C(=O)OC[C@@H]3[C@H](C)F)n2)ncc1-c1ccnc(C(F)(F)F)c1` , what is its reported solubility?
Ans: 130

###

assay: AUC (0 to 12 hrs) in nude mouse xenografted with human HMEX2838 cells at 30 mg/kg, po bid administered via gavage by LC-MS/MS analysis; format: ADME, organism-based; parameters: time < 12 hr, dose 30 mg/kg, route oral; details: in vivo
value.kind: AUC at 12 h (µM·h)
Give the value, in units of µM·h, as a plain number.

Q: Which AUC at 12 h value belongs to `Cc1cc([C@H](C)Nc2nccc(N3C(=O)OC[C@@H]3[C@H](C)F)n2)ncc1-c1ccnc(C(F)(F)F)c1` ?
Ans: 5.4

###

test: AUC in Sprague-Dawley rat at 10 mg/kg, po by HLPC-MS analysis; type: ADME, organism-based; conditions: in vivo
value.kind: AUC (µM·h)
The reply should be a number in µM·h, with the unit left off.

Q: AUC lookup needed for `CC(C)[C@H]1COC(=O)N1c1ccnc(N[C@@H](C)c2ccc(-c3ccnc(C(F)(F)F)c3)cn2)n1` , thanks.
Ans: 1.6

Q: Which value of AUC has been reported for `Cc1cc([C@H](C)Nc2nccc(N3C(=O)OC[C@@H]3[C@H](C)F)n2)ncc1-c1ccnc(C(F)(F)F)c1` in the records?
Ans: 6.2

Q: // returns reported AUC for input `Cc1cc(-c2cnc([C@H](C)Nc3nccc(N4C(=O)OC[C@@H]4C(C)C)n3)nc2)ccc1F`
Ans: 0.2
